meta.source: the supplement of paper PMC7600603

# Tested on: DLD1 NRF2-WT
# test_method_notes: drug sensitivity score (DSS) cytotoxicity (DSS score); higher = more toxic; extreme values may be limits of the assay
# experimental_context: 72 h; CellTox Green cytotoxicity
metric: drug sensitivity score
One number for each entry.

# annotated cases, reported drug sensitivity score shown
INSERT INTO measurements (compound, result_value) VALUES
  ('Cc1c(F)cc(C(=O)NC2CC2)cc1-c1ccc(C(=O)NCC(C)(C)C)cn1', 0),
  ('CC[C@H](C)C(=O)O[C@H]1C[C@@H](C)C=C2C=C[C@H](C)[C@H](CC[C@@H]3C[C@@H](O)CC(=O)O3)[C@H]21', 0),
  ('N#Cc1ccc(COC[C@H]2O[C@@H](n3c(NCc4ccc(Cl)c(Cl)c4)nc4c(N)ncnc43)[C@H](O)[C@@H]2O)cc1', 0);

// input: 3 compounds below; output: drug sensitivity score for each
1. CN[C@@H](C)C(=O)N[C@H](C(=O)N1CCC[C@H]1c1nc(C(=O)c2ccc(F)cc2)cs1)C1CCCCC1
2. CCOc1cc2ncc(C#N)c(Nc3ccc(OCc4ccccn4)c(Cl)c3)c2cc1NC(=O)/C=C/CN(C)C
3. CC(C)c1cc(C(=O)N2Cc3ccc(CN4CCN(C)CC4)cc3C2)c(O)cc1O

[out]
1. 0
2. 0
3. 0

Hi! Can you tell me drug sensitivity score for each of these compounds?
1. CN1CCN(C2CCN(C(=O)Nc3cc(Oc4ccc(NC(=O)C5(C(=O)Nc6ccc(F)cc6)CC5)c(F)c4)ccn3)CC2)CC1
2. CN(C)CCOc1ccc(/C(=C(/CCCl)c2ccccc2)c2ccccc2)cc1
3. O=C(/C=C\n1cnc(-c2cc(C(F)(F)F)cc(C(F)(F)F)c2)n1)NNc1ccccn1 [Verdinexor]
4. C[C@]12CC[C@H](O)CC1=CC[C@@H]1[C@@H]2CC[C@]2(C)C(c3cccnc3)=CC[C@@H]12
5. Cc1cc2c(C(C)C)c(O)c(O)c(C=O)c2c(O)c1-c1c(C)cc2c(C(C)C)c(O)c(O)c(C=O)c2c1O
6. CC[C@@H]1C(=O)N(C)c2cnc(Nc3ccc(C(=O)NC4CCN(C)CC4)cc3OC)nc2N1C1CCCC1

[out]
1. 0
2. 0
3. 0
4. 0
5. 1.7
6. 3.1

Batch request: drug sensitivity score for each of the following compounds.
1. C=C(c1ccc(C(=O)O)cc1)c1cc2c(cc1C)C(C)(C)CCC2(C)C
2. COc1cc(Br)c(Nc2nc(-c3c(C)nc4ncccn34)cs2)c(Br)c1
3. CC(=O)N(O)CCCCCNC(=O)CCC(=O)N(O)CCCCCNC(=O)CCC(=O)N(O)CCCCCN
4. CCCc1cc(C)[nH]c(=O)c1CNC(=O)c1cc(-c2ccnc(N3CCN(C)CC3)c2)cc2c1cnn2C(C)C
5. C[C@@H]1CN(C(=O)c2ccc(NC(=O)c3cc(O[C@H](C)c4c(Cl)ccc(F)c4Cl)c(N)nn3)cc2)C[C@H](C)N1

[out]
0
0
0
0
0.3
